# Target Under Test: human Adenosine A1 receptor (Homo sapiens (Human))
# Sequence (P30542 whole entry): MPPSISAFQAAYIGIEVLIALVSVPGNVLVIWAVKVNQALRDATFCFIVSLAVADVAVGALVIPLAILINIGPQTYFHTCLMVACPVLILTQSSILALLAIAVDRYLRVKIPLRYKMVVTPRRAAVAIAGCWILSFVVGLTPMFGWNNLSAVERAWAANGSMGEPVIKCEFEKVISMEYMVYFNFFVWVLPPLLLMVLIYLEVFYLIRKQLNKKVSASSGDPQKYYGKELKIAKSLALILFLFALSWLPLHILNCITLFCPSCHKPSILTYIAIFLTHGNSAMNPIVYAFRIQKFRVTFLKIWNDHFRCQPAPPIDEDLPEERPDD
# Method Description: Adenosine receptor TR-FRET binding assay (A1)
# Test Parameters: inhibition of binding of 100 nM CA200645, CHO cell membranes
pKi: −log10 of the molar value.
Reported Metric: pKi

Example results:
Look up and report measured pKi for this entry: `Cc1cc(-c2sc(NC(=O)N3C[C@@H]4C[C@H]3CN4)nc2-c2cccc(C#N)c2)cc(Cl)n1`
7.66

Look up and report measured pKi for this entry: `Cc1cc(-c2sc(NC(=O)N3CC4CC(C3)N4)nc2-c2cccc(C#N)c2)cc(C)n1`
6.76

Look up and report measured pKi for this entry: `Cc1cc(-c2sc(NC(=O)N3CCN[C@@H](C#N)C3)nc2-c2cccc(C#N)c2)cc(C)n1`
7.39

Look up and report measured pKi for this entry: `COC(=O)[C@H]1CN(C(=O)Nc2nc(-c3cccc(C#N)c3)c(-c3cc(C)nc(Cl)c3)s2)CCN1`
7.35

1: Cc1cc(-c2sc(NC(=O)N3CCC4(COCCN4)C3)nc2-c2cccc(C#N)c2)cc(C)n1 (stereo not drawn)
2: Cc1cc(-c2sc(NC(=O)N3CC4(COC4)C3)nc2-c2cccc(C#N)c2)cc(C(C)C)n1
Hi team, can someone confirm which has the larger pKi: 1 or 2 ? Thanks. Response format: the label of the selected entry.
2

---

# Target Under Test: UniProtKB P29275
# Sequence (P29275 whole entry): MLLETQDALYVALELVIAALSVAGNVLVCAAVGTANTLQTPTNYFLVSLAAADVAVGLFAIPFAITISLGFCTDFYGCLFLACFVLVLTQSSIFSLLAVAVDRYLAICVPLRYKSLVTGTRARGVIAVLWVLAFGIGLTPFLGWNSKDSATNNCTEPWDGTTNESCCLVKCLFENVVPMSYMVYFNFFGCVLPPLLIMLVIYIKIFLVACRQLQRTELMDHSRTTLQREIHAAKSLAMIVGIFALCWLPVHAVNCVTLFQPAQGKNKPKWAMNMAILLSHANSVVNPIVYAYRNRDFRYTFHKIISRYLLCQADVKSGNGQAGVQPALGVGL
# Method Description: Adenosine receptor TR-FRET binding assay (A2b)
# Test Parameters: TR-FRET, inhibition of binding of 30 nM CA200645, CHO cell membranes
pKi: −log10 of the molar value.
Reported Metric: pKi

Look up and report measured pKi for this entry: Cc1cc(-c2sc(NC(=O)N3CCNCC3C3CC3)nc2-c2cccc(C#N)c2)cc(C)n1 (stereo not shown) [Example 14.4]
7.43

Look up and report measured pKi for this entry: Cc1cc(-c2sc(NC(=O)N3CCC(N)(C#N)CC3)nc2-c2cccc(C#N)c2)cc(C)n1 [Example 7.2]
9.00

Look up and report measured pKi for this entry: Cc1cc(-c2sc(NC(=O)N3CCC(C#N)(C#N)CC3)nc2-c2cccc(C#N)c2)cc(CO)n1 [Example 9.8]
8.62

Look up and report measured pKi for this entry: Cc1cc(-c2sc(NC(=O)N3CCN(C)CC3)nc2-c2cccc(C#N)c2)cc(Cl)n1 [Example 3.6]
8.82

Look up and report measured pKi for this entry: Cc1cc(-c2sc(NC(=O)N3C[C@H]4CC[C@@H](C3)N(C)C4)nc2-c2cccc(C#N)c2)cc(C)n1 [Example 6.5]
7.64

1: Cc1cc(-c2sc(NC(=O)N3CCC(C(=O)NCCO)CC3)nc2-c2cccc(C#N)c2)cc(C)n1 [Example 6.33]
2: Cc1cc(-c2sc(NC(=O)N3CC(CO)C3)nc2-c2cccc(C#N)c2)cc(C)n1 [Example 4.25]
Identify the item whose pKi is the smaller number: 1 or 2 Response format: the label of the selected entry.
1
(1: 8.44, 2: 8.74)

---

# Target Under Test: UniProt:P29274
# Sequence (P29274 whole entry): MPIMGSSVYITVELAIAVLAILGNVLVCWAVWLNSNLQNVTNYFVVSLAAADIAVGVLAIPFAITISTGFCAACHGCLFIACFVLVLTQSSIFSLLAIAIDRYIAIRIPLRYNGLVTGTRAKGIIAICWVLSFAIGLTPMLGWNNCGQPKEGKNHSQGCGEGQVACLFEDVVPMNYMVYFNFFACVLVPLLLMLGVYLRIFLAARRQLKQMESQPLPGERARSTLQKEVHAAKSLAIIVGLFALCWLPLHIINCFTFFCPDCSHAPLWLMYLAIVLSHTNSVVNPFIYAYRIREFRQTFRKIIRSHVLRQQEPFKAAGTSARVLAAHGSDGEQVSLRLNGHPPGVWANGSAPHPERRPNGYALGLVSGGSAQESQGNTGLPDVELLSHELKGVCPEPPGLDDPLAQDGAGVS
# Method Description: Adenosine receptor TR-FRET binding assay (A2a)
# Test Parameters: inhibition of binding of 100 nM CA200645, CHO cell membranes
pKi: −log10 of the molar value. Structures can show the parent of a compound that is named as a salt.
Reported Metric: pKi

Look up and report measured pKi for this entry: Cc1cc(-c2sc(NC(=O)N3CCC(N4CCOCC4)C3)nc2-c2cccc(C#N)c2)cc(C)n1 (centres unmarked) [Example 6.84, hemi formate salt]
8.35

I: Cc1cc(-c2sc(NC(=O)N3CC[S+]([O-])CC3)nc2-c2cccc(C#N)c2)cc(C(F)F)n1
II: Cc1cc(-c2sc(NC(=O)N3C[C@@H](C)NC[C@@H]3C)nc2-c2cccc(C#N)c2)cc(C)n1 (relative stereo)
III: Cc1cc(-c2sc(NC(=O)N3CCC(C#N)CC3)nc2-c2cccc(C#N)c2)cc(C)n1
IV: Cc1cc(-c2sc(NC(=O)N3CCN4C(=O)NC(=O)C4C3)nc2-c2cccc(C#N)c2)cc(C)n1 (centres unmarked)
List by increasing pKi. A complete answer lists every label in the requested sequence.
II, IV, I, III
(II: 7.89, IV: 8.52, I: 9.21, III: 9.96)

A: Cc1cc(-c2sc(NC(=O)N3CCN(C4COC4)CC3)nc2-c2cccc(C#N)c2)cc(C)n1
B: Cc1cc(-c2sc(NC(=O)N3CCN(C4COC4)CC3)nc2-c2cccc(C#N)c2)cc(Cl)n1
Hi team, can someone confirm which has the larger pKi: A or B ? Thanks. Response format: the label of the selected entry.
B
(B: 9.28, A: 9.07)
